This collection of values is drawn from paper PMC8843100.

- Tested on: A498
- measurement-description: NCI-60 single dose screen, sulforhodamine B
- Format: cell-based, human
- condition-label: Renal cancer A498; single dose 10^−5 M
quantity-kind: GI% at 10^−5 M

These solved cases illustrate the format of a correct answer.
> print(dat)
                            compound.smiles  test.target                result
1  O=C(CN1CCN(c2ccccc2)CC1)Nn1c(COc2ccccc2)nc2ccccc2c1=O         A498  – (– means GI < 10%)
2  O=c1c2ccccc2nc(COc2ccccc2)n1NS(=O)(=O)c1ccccc1         A498  – (– means GI < 10%)
3  Cc1ccc(S(=O)(=O)Nn2c(COc3ccccc3)nc3ccccc3c2=O)cc1         A498  – (– means GI < 10%)
4  COc1cc(C=Nn2c(COc3ccccc3)nc3ccccc3c2=O)ccc1O         A498  – (– means GI < 10%)
5  O=c1c2ccccc2nc(COc2ccccc2)n1N=CC=Cc1ccccc1         A498  – (– means GI < 10%)

Here's the next entry for you.
Inquiry: Report GI% at 10^−5 M for "O=C(CNn1c(COc2ccccc2)nc2ccccc2c1=O)Nc1ccccc1" please.
Reply text: – (– means GI < 10%)

----------
- Tested on: HS 578T
- measurement-description: NCI-60 single dose screen, sulforhodamine B
- Format: cell-based, human
- condition-label: Breast cancer HS 578T; single dose 10^−5 M
quantity-kind: GI% at 10^−5 M

> print(dat)
                            compound.smiles                result
1  O=c1c2ccccc2nc(COc2ccccc2)n1NS(=O)(=O)c1ccccc1  – (– means GI < 10%)
2  COc1ccc(N2CCN(CC(=O)Nn3c(COc4ccccc4)nc4ccccc4c3=O)CC2)cc1  – (– means GI < 10%)
3  COc1ccc(NC(=O)CNn2c(COc3ccccc3)nc3ccccc3c2=O)cc1  – (– means GI < 10%)

----------
Each entry below lists one item and its recorded GI% at 10^−5 M value.
- Tested on: MDA-MB-435
- measurement-description: NCI-60 single dose screen, sulforhodamine B
- Assay type: cell-based, human
- condition-label: Melanoma MDA-MB-435; single dose 10^−5 M
- Method: In this research, all of the newly synthesised quinazolinones were subjected to in vitro anticancer screening by the National Cancer Institute (USA) against 60 different human cell lines including leukaemia, non-small cell lung cancer, colon cancer, CNS cancer, melanoma, ovarian cancer, renal cancer, prostate cancer, and breast cancer. The tested compounds were evaluated at a single dose (10^−5 M). […]
# output: bare number, implied unit %

> print(dat)
                                   molecule   quantity.kind  unit.symbol  number
1  O=c1c2ccccc2nc(COc2ccccc2)n1NS(=O)(=O)c1ccc(Cl)cc1 [Compound 5c]  GI% at 10^−5 M            %   94.53

Here's the next entry for you.
Inquiry: Report GI% at 10^−5 M for CN1CCN(CC(=O)Nn2c(COc3ccccc3)nc3ccccc3c2=O)CC1 [Compound 8a] please.
Reply text: 94.15

----------
- Tested on: SW-620
- measurement-description: NCI-60 single dose screen, sulforhodamine B
- Type: cell-based, human
- condition-label: Colon cancer SW-620; single dose 10^−5 M
quantity-kind: GI% at 10^−5 M

These solved cases illustrate the format of a correct answer.
> print(dat)
                            compound.smiles                result
1  O=c1c2ccccc2nc(COc2ccccc2)n1NS(=O)(=O)c1ccccc1  – (– means GI < 10%)
2  O=C(CNn1c(COc2ccccc2)nc2ccccc2c1=O)Nc1ccc(Cl)cc1  – (– means GI < 10%)
3  CN1CCN(CC(=O)Nn2c(COc3ccccc3)nc3ccccc3c2=O)CC1                42.80%
4  COc1cc(C=Nn2c(COc3ccccc3)nc3ccccc3c2=O)ccc1O  – (– means GI < 10%)

Here's the next entry for you.
Inquiry: Report GI% at 10^−5 M for "COc1ccc(N2CCN(CC(=O)Nn3c(COc4ccccc4)nc4ccccc4c3=O)CC2)cc1" please.
Reply text: – (– means GI < 10%)
